Assay: Immunosuppressive activity in BALB/c mouse splenocytes assessed as inhibition of concanavalin A-induced cell proliferation at 100 uM after 48 hrs by MTT assay
Format: functional
Conditions: Splenocyte
inhibition at 100 µM vs 40%: at or above is label 1, below is label 0.

> print(dat)
                  query.smiles      cat
1  COc1cc(OC)c2c(=O)cc[nH]c2c1  label 0

Prompt: Could you tell me if the measured inhibition at 100 µM of `COc1cc(OC)c2c(OC(C)=O)ccnc2c1` reaches 40% or more?
Response: label 0

====

Test: Cytotoxicity against BALB/c mouse splenocytes at 10 uM after 48 hrs by MTT assay
Format: cell-based, Splenocyte
Settings: read-out: INH
outcome_measure: cytotoxicity at 48 h, 10 µM (%)
# value in %; strip the unit string

// worked examples, cytotoxicity at 48 h, 10 µM included
> print(dat)
                               query.smiles  data.value
1               COc1cc(OC)c2c(=O)cc[nH]c2c1         6.1
2  COc1cc(OC)c2c(OC(=O)c3ccc(Cl)cc3Cl)ccnc2c1        16.5
3  COc1cc(OC)c2c(O[C@@H]3OC[C@@H](O)[C@H](O)[C@H]3O)ccnc2c1         6.9
4             COc1cc(OC)c2c(OC(C)=O)ccnc2c1         8.3
5  COc1cc(OC)c2c(OC(=O)c3cccc(Cl)c3)ccnc2c1         3.1

// switching to the query compound
Prompt: Identify measured cytotoxicity at 48 h, 10 µM corresponding to `COc1cc(OC)c2c(OC(=O)c3ccccc3I)ccnc2c1`
Response: 14.3
